Task for the reader: assign each of the following compounds its reported Fa.
procedureText: Human intestinal absorption in po dosed human
conditionNotes: in vivo

Reference set, count: 5
compound | testValue
CC(C)NCC(O)COc1ccc(CCNC(=O)NC(C)C)cc1 (stereo not given) [PAFENOLOL] | 29%
CN(C)CCOc1ccc(/C(=C(/CCCl)c2ccccc2)c2ccccc2)cc1 [TOREMIFENE] | 100%
CN(Cc1cnc2nc(N)nc(N)c2n1)c1ccc(C(=O)N[C@@H](CCC(=O)O)C(=O)O)cc1 [METHOTREXATE] | 70%
CN(C)CCCN1c2ccccc2CCc2ccccc21 [IMIPRAMINE] | 100%
CCOC(=O)C(C)(C)Oc1ccc(Cl)cc1 [CLOFIBRATE] | 97%

For each of the compounds below, note its Fa.
1. Cc1cccc(C)c1OCC(C)N (stereo not given) [MEXILETINE]
2. Cc1ccc(/C(=C\CN2CCCC2)c2cccc(/C=C/C(=O)O)n2)cc1 [ACRIVASTINE]
3. Cn1c(=O)c2[nH]cnc2n(C)c1=O.O [THEOPHYLLINE]
4. CC(C)(C)NC[C@H](O)COc1nsnc1N1CCOCC1 [TIMOLOL]
5. CC(=O)Nc1ccc(O)cc1 [ACETAMINOPHEN]
6. COc1ccc2c3c1O[C@H]1[C@@H](O)CC[C@H]4[C@@H](C2)N(C)CC[C@@]341 [DIHYDROCODEINE]
7. O=C([O-])c1cc(=O)c2c(OCC(O)COc3cccc4oc(C(=O)[O-])cc(=O)c34)cccc2o1.[Na+].[Na+] [CROMOLYN SODIUM]

["100%", "88%", "100%", "95%", "80%", "88%", "4%"]

For each of the compounds below, note its Fa.
1. O=S(=O)([O-])CCS.[Na+] [MESNA]
2. C=CCOc1ccccc1OCC(O)CNC(C)C (stereo not given) [OXPRENOLOL]

77%
95%

* * *

procedureText: Human intestinal absorption in po dosed human
conditionNotes: in vivo
recordedEndpoint: Fa (%)
Answers are plain numbers, in %.

molecule | testValue
COc1ccc(CCN(C)CCCC(C#N)(c2cc(OC)c(OC)c(OC)c2)C(C)C)cc1OC (stereo not given) | 100
CC(C)NCC(O)COc1ccc(CCOCC2CC2)cc1 (stereo not given) | 90
CN1C(C(=O)Nc2nccs2)=C(O)c2ccccc2S1(=O)=O | 100

For each of the molecules below, note its Fa.
1. Cc1nnc2n1-c1ccc(Cl)cc1C(c1ccccc1)=NC2
2. CN/C(=N/CCSCc1nc[nH]c1C)NC#N

1. 90
2. 64

For each of the molecules below, note its Fa.
1. C=CC(N)CCC(=O)O (stereo not given)
2. COc1nc(C)nc(Cl)c1N=C1NCCN1
3. Cn1c(=O)c2c(ncn2CCCNCC(O)c2cc(O)cc(O)c2)n(C)c1=O (stereo not given)
4. CN1C(=O)C(O)N=C(c2ccccc2Cl)c2cc(Cl)ccc21 (stereo not given)

1. 58
2. 87
3. 60
4. 100

Query Fa for CC(C)(C)NCC(O)c1ccc(O)c(CO)n1 (stereo not given)
60

* * *

procedureText: Human intestinal absorption in po dosed human
conditionNotes: in vivo
recordedEndpoint: Fa (%)
Answers are plain numbers, in %.

Reference set, count: 5
molecule | Fa [%]
O=C(O)c1ccccc1O | 100
O=C(O)c1cc(/N=N/c2ccc(O)c(C(=O)O)c2)ccc1O | 24
C[C@]12CC[C@H]3[C@@H](CCC4=CC(=O)CC[C@@]43C)[C@@H]1CC[C@@H]2O | 100
COCC(=O)O[C@]1(CCN(C)CCCc2nc3ccccc3[nH]2)CCc2cc(F)ccc2[C@@H]1C(C)C | 69
CC(=O)S[C@@H]1CC2=CC(=O)CC[C@]2(C)[C@H]2CC[C@@]3(C)[C@@H](CC[C@@]34CCC(=O)O4)[C@H]12 | 73

For each of the molecules below, note its Fa.
1. O=C(C1CCCCC1)N1CC(=O)N2CCc3ccccc3C2C1 (configuration not stated)
2. C[C@](N)(Cc1ccc(O)c(O)c1)C(=O)O
3. C[C@H](CS)C(=O)N1CCC[C@H]1C(=O)O
4. NS(=O)(=O)c1cc(-c2nnn[nH]2)c(NCc2cccs2)cc1Cl [AZOSEMIDE]
5. CC1(C)S[C@@H]2[C@H](NC(=O)C(C(=O)Oc3ccccc3)c3ccccc3)C(=O)N2[C@H]1C(=O)O (some centres not stated)
6. NCCCC(N)(C(=O)O)C(F)F (configuration not stated)
7. CCC(=O)C(CC(C)N(C)C)(c1ccccc1)c1ccccc1 (configuration not stated)
8. CNCCCN1c2ccccc2CCc2ccccc21

[100, 41, 84, 10, 99, 55, 80, 100]

For each of the molecules below, note its Fa.
1. Nc1cc(N2CCCCC2)nc(N)[n+]1[O-]
2. O=C(N[C@H](CO)[C@H](O)c1ccc([N+](=O)[O-])cc1)C(Cl)Cl
3. COP(=O)(OC)OC(c1ccc(Cl)cc1)P(=O)(OC)OC (configuration not stated) [MIFOBATE]
4. CCN1CCCC1CNC(=O)c1cc(S(=O)(=O)CC)ccc1OC (configuration not stated) [SULTOPRIDE]
5. O=C(O)c1cccnc1
6. N[C@@H]1[C@H]2CN(c3nc4c(cc3F)c(=O)c(C(=O)O)cn4-c3ccc(F)cc3F)C[C@@H]12

98
90
81
89
88
88

For each of the molecules below, note its Fa.
1. CCCOC(C(=O)OC1CCN(C)CC1)(c1ccccc1)c1ccccc1
2. CCOC(=O)C1=C(C)NC(C)=C(C(=O)OC)C1c1cccc(Cl)c1Cl (configuration not stated)
3. CC(C)(C)NCC(O)COc1cccc2c1CC(O)C(O)C2 (configuration not stated)
4. NCCCC[C@H](N[C@@H](CCc1ccccc1)C(=O)O)C(=O)N1CCC[C@H]1C(=O)O [LISINOPRIL ANHYDROUS]

[84, 88, 57, 28]

For each of the molecules below, note its Fa.
1. CCn1cc(C(=O)O)c(=O)c2cc(F)c(N3CCN(C)CC3)cc21
2. N=C(N)N/N=C/c1c(Cl)cccc1Cl
3. CC1=C(CC(=O)O)c2cc(F)ccc2/C1=C\c1ccc([S+](C)[O-])cc1 (configuration not stated)

1. 100
2. 80
3. 90

For each of the molecules below, note its Fa.
1. C#C[C@]1(O)CC[C@H]2[C@@H]3CCc4cc(O)ccc4[C@H]3CC[C@@]21C
2. CC(CCc1ccccc1)NCC(O)c1ccc(O)c(C(N)=O)c1 (configuration not stated)
3. Nc1cc(-c2ccncc2)c[nH]c1=O
4. OC[C@H]1O[C@@H](O[C@@H]2[C@@H](CO)O[C@](O)(CO)[C@H]2O)[C@H](O)[C@@H](O)[C@H]1O

100
95
93
1

For each of the molecules below, note its Fa.
1. CC1(C)S[C@@H]2[C@H](NC(=O)Cc3ccccc3)C(=O)N2[C@H]1C(=O)O
2. CCc1nn(CCCN2CCN(c3cccc(Cl)c3)CC2)c(=O)n1CCOc1ccccc1

1: 30; 2: 100

For each of the molecules below, note its Fa.
1. COc1ccccc1N1CCN(CCCNc2cc(=O)n(C)c(=O)n2C)CC1
2. CCN1CCCC1CNC(=O)c1cc(S(N)(=O)=O)ccc1OC (configuration not stated) [SULPIRIDE]
3. CO/N=C(\C(=O)N[C@@H]1C(=O)N2C(C(=O)OC(C)OC(C)=O)=C(COC(N)=O)CS[C@H]12)c1ccco1 (some centres not stated)
4. CNC(=C[N+](=O)[O-])NCCSCc1csc(CN(C)C)n1
5. Cc1cn([C@H]2C=C[C@@H](CO)O2)c(=O)[nH]c1=O

1: 78; 2: 44; 3: 44; 4: 90; 5: 100
